# Test system: mice
# Method Description: Prevention of bicuculline (BIC)-induced convulsions in mice
# Format: in vivo, male Swiss albino mice
# Assay Setup: Mus musculus, po; 30 mg/kg orally; bicuculline 0.6 mg/kg intravenously; four groups of five animals; read-out: Percentage of Mice Protected from Bicuculline

>  <Compound>
CCCCCCCCNC(=O)NC(=O)CNCCc1ccccc1 [Compound 3]

>  <responders at 30 mg/kg>
55%

$$$$
>  <Compound>
O=C(CNCCc1ccccc1)NC(=O)NCCc1ccccc1 [Compound 5]

>  <responders at 30 mg/kg>
45%

$$$$
>  <Compound>
CCCCCCCCNCC(=O)NC(=O)NCCc1ccccc1 [Compound 6]

>  <responders at 30 mg/kg>
35%

$$$$
>  <Compound>
CCCCCCCCNCC(=O)NC(=O)NCCCCCCCC [Compound 4, 1-octyl-3-(2-octylamino-1-oxoethyl)urea]

>  <responders at 30 mg/kg>
35%

$$$$
>  <Compound>
CCCCCNC(=O)NC(=O)CNCCc1ccccc1 [Compound 7]

>  <responders at 30 mg/kg>
25%

$$$$
>  <Compound>
CCCCCNCC(=O)NC(=O)NCCCCC [Compound 8]

>  <responders at 30 mg/kg>
40%

$$$$
>  <Compound>
CCCCCNCC(=O)NC(=O)NCCc1ccccc1 [Compound 2]

>  <responders at 30 mg/kg>
25%

$$$$
>  <Compound>
CCCCCCCCNC(=O)NC(=O)CNCCCCC [Compound 1, 1-octyl-3-(2-pentylamino-1-oxoethyl)urea]

>  <responders at 30 mg/kg>
35%

$$$$
>  <Compound>
CCCCCCCCNCC(=O)NC(=O)NCCCCC [Compound 9, 1-pentyl-3-(2-octylamino-1-oxoethyl)urea]

>  <responders at 30 mg/kg>
35%

$$$$

* * *

# Method Description: Acute toxicity in mice after oral administration
# Set-up: species or system male Swiss albino mice
# Assay Setup: mouse, in vivo, mortality over 15 days

>  <Compound>
CCCCCCCCNCC(=O)NC(=O)NCCc1ccccc1 [Compound 6]

>  <LD50 at 360 h>
> 3000 mg/kg

$$$$
>  <Compound>
O=C(CNCCc1ccccc1)NC(=O)NCCc1ccccc1 [Compound 5]

>  <LD50 at 360 h>
1750 mg/kg

$$$$
>  <Compound>
CCCCCNCC(=O)NC(=O)NCCCCC [Compound 8]

>  <LD50 at 360 h>
> 3000 mg/kg

$$$$
>  <Compound>
CCCCCCCCNCC(=O)NC(=O)NCCCCCCCC [Compound 4, 1-octyl-3-(2-octylamino-1-oxoethyl)urea]

>  <LD50 at 360 h>
> 3000 mg/kg

$$$$
>  <Compound>
CCCCCNC(=O)NC(=O)CNCCc1ccccc1 [Compound 7]

>  <LD50 at 360 h>
> 3000 mg/kg

$$$$

* * *

Recorded LD50 at 360 h for the following compounds
# Method Description: Acute toxicity in mice after oral administration
# Design: species or system male Swiss albino mice
# Assay Setup: mouse, in vivo, mortality over 15 days
# Procedure: Treatment of a mammal afflicted by or susceptible to certain CNS disorders is accomplished by administration of a therapeutically-effective amount of a compound of Formula I. In particular, Compounds #1-11 of Table II were evaluated by in vitro and in vivo animal model assays to determine the pharmacological properties of such compounds and their likely suitability for use as therapeutic drugs in humans. […]
Metric Name: LD50 at 360 h

>  <Cpd Smiles>
CCCCCCCCNC(=O)NC(=O)CNCCCCC

>  <Metric Name>
LD50 at 360 h

>  <Result>
> 1000 mg/kg

$$$$
>  <Cpd Smiles>
CCCCCCCCNCC(=O)NC(=O)NCCCCC

>  <Metric Name>
LD50 at 360 h

>  <Result>
> 1000 mg/kg

$$$$
>  <Cpd Smiles>
CCCCCCCCNC(=O)NC(=O)CNCCc1ccccc1

>  <Metric Name>
LD50 at 360 h

>  <Result>
> 3000 mg/kg

$$$$
>  <Cpd Smiles>
CCCCCNCC(=O)NC(=O)NCCc1ccccc1

>  <Metric Name>
LD50 at 360 h

>  <Result>
> 1000 mg/kg

$$$$

* * *

# Test system: mice
# Method Description: Prevention of 3-mercaptopropionic acid (3-MPA)-induced convulsions in mice
# Format: in vivo, male Swiss albino mice
# Assay Setup: 100 mg/kg orally, 30 min before convulsions induced; 3-MPA 120 mg/kg subcutaneously; two groups of five animals
Metric Name: Number of Mice Protected From Convulsions Induced by 3-MPA at 100 mg/kg, 30 min interval (mice)

>  <Molecule>
CCCCCNCC(=O)NC(=O)NCCc1ccccc1 [Compound 2]

>  <Experimental Target>
mice

>  <Unit Text>
mice

>  <Measured Number>
3

$$$$
>  <Molecule>
CCCCCNCC(=O)NC(=O)NCCCCC [Compound 8]

>  <Experimental Target>
mice

>  <Unit Text>
mice

>  <Measured Number>
0

$$$$
>  <Molecule>
CCCCCCCCNC(=O)NC(=O)CNCCc1ccccc1 [Compound 3]

>  <Experimental Target>
mice

>  <Unit Text>
mice

>  <Measured Number>
6

$$$$
>  <Molecule>
CNC(=O)NC(=O)CNC(c1ccccc1)c1ccccc1 [Compound 10]

>  <Experimental Target>
mice

>  <Unit Text>
mice

>  <Measured Number>
1

$$$$
>  <Molecule>
O=C(CNC(c1ccccc1)c1ccccc1)NC(=O)NCCc1ccccc1 [Compound 11]

>  <Experimental Target>
mice

>  <Unit Text>
mice

>  <Measured Number>
0

$$$$
>  <Molecule>
CCCCCCCCNCC(=O)NC(=O)NCCc1ccccc1 [Compound 6]

>  <Experimental Target>
mice

>  <Unit Text>
mice

>  <Measured Number>
9

$$$$
>  <Molecule>
CCCCCCCCNCC(=O)NC(=O)NCCCCC [Compound 9, 1-pentyl-3-(2-octylamino-1-oxoethyl)urea]

>  <Experimental Target>
mice

>  <Unit Text>
mice

>  <Measured Number>
7

$$$$
>  <Molecule>
O=C(CNCCc1ccccc1)NC(=O)NCCc1ccccc1 [Compound 5]

>  <Experimental Target>
mice

>  <Unit Text>
mice

>  <Measured Number>
6

$$$$
>  <Molecule>
CCCCCCCCNCC(=O)NC(=O)NCCCCCCCC [Compound 4, 1-octyl-3-(2-octylamino-1-oxoethyl)urea]

>  <Experimental Target>
mice

>  <Unit Text>
mice

>  <Measured Number>
4

$$$$
>  <Molecule>
CCCCCNC(=O)NC(=O)CNCCc1ccccc1 [Compound 7]

>  <Experimental Target>
mice

>  <Unit Text>
mice

>  <Measured Number>
1

$$$$
>  <Molecule>
CCCCCCCCNC(=O)NC(=O)CNCCCCC [Compound 1, 1-octyl-3-(2-pentylamino-1-oxoethyl)urea]

>  <Experimental Target>
mice

>  <Unit Text>
mice

>  <Measured Number>
0

$$$$

* * *

# Tested on: mice
# Parameters: species or system male Swiss albino mice
# Assay Setup: mouse, in vivo, po
Metric Name: Behavior (dose at which the behavior is observed : behavior)

>  <Compound>
O=C(CNCCc1ccccc1)NC(=O)NCCc1ccccc1 [Compound 5]

>  <Result>
3000:TOX, DEP

$$$$
>  <Compound>
CCCCCCCCNC(=O)NC(=O)CNCCCCC [Compound 1, 1-octyl-3-(2-pentylamino-1-oxoethyl)urea]

>  <Result>
1000:0 mg/kg

$$$$
>  <Compound>
CCCCCCCCNCC(=O)NC(=O)NCCCCCCCC [Compound 4, 1-octyl-3-(2-octylamino-1-oxoethyl)urea]

>  <Result>
3000:0 mg/kg

$$$$
>  <Compound>
CCCCCCCCNC(=O)NC(=O)CNCCc1ccccc1 [Compound 3]

>  <Result>
3000:SED, ATN

$$$$
>  <Compound>
CCCCCCCCNCC(=O)NC(=O)NCCc1ccccc1 [Compound 6]

>  <Result>
1000:SED, ATN

$$$$
>  <Compound>
CCCCCNCC(=O)NC(=O)NCCc1ccccc1 [Compound 2]

>  <Result>
1000:SED, RPI, RRE

$$$$
>  <Compound>
CCCCCNC(=O)NC(=O)CNCCc1ccccc1 [Compound 7]

>  <Result>
1000:SED

$$$$
>  <Compound>
CCCCCCCCNCC(=O)NC(=O)NCCCCC [Compound 9, 1-pentyl-3-(2-octylamino-1-oxoethyl)urea]

>  <Result>
1000:0 mg/kg

$$$$

Where do the numbers come from? From patent US5288905A.
